B1: PWWP2B (parent)
chain: TIRLRPRQVLCEKCKSTLSPPEAS

variants of: B1; assay: protein stability index of a GFP-peptide fusion (GPS, HEK-293T) (PSI 1-6); higher = more stable; settings: c terminus: a fixed tail appended;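 further: lentivirally expressed fusions sorted by FACS into six bins by GFP to DsRed ratio, PSI derived from sequencing read proportions per bin multiplied by bin number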
Returns one of Criterion met or Criterion not met; Criterion met when protein stability index is >= 3.

Does protein stability index meet or surpass 3 for "TIRCRPRQVLCEKCKSTLSPPEAS" ?
Criterion met

Does protein stability index meet or surpass 3 for "TIRLRPRQVLCEKCKSTLSPPEAM" ?
Criterion not met

Does protein stability index meet or surpass 3 for "TIRLRYRQVLCEKCKSTLSPPEAS" ?
Criterion not met

Does protein stability index meet or surpass 3 for "TIRLRPRQVLCYKCKSTLSPPEAS" ?
Criterion not met

Does protein stability index meet or surpass 3 for "TIRLRPRQVLCEKDKSTLSPPEAS" ?
Criterion met

Does protein stability index meet or surpass 3 for "TIRLRPRQVLCEKCKSTLSCPEAS" ?
Criterion not met

Does protein stability index meet or surpass 3 for "TIRLRPRQVLCECCKSTLSPPEAS" ?
Criterion not met

Does protein stability index meet or surpass 3 for "TIRLRPREVLCEKCKSTLSPPEAS" ?
Criterion met

Does protein stability index meet or surpass 3 for "TIRLRPRQVLCEKCKSTNSPPEAS" ?
Criterion met
